System: NCI-H23 lung
RUN DESCRIPTION: NCI tumour cell line growth inhibition, 48 h
# maps each entry to its TGI
VALUE KIND: TGI (µM)

>>> print(df.to_string())
                                   compound  operator  measured
0         O=C(/C=C/c1ccccc1)Oc1cccc2cccnc12         =        20
1  OC1[C@@H]2[C@@H](O)CCCN2C[C@@H](O)[C@H]1O (some centres undefined)         >       100
2  FC(F)(F)c1cccc(-c2nc3nc(Cl)c(Cl)nc3[nH]2)c1         =      14.7
3  O=C1C2C3C=C4c5ccccc5N(c5ccccc5)C4(C2C(=O)N1c1ccccc1)C1C(=O)N(c2ccccc2)C(=O)C31 (centres undefined)         >       100

----------
System: MDA-MB-231 breast
RUN DESCRIPTION: NCI tumour cell line growth inhibition, 48 h
# maps each entry to its TGI
VALUE KIND: TGI

>>> print(df.to_string())
                                   molecule  value_kind  measured
0  COc1cc(/C=C/C(=O)c2c(C)nc3ccccc3c2/C=C/c2ccccc2)cc(OC)c1OC         TGI  > 100 µM
1  Cc1ccc(S(=O)(=O)NC(=O)Nc2nnc(S(N)(=O)=O)s2)cc1         TGI  > 100 µM
2    C/C(CC(O)(C(F)(F)F)C(F)(F)F)=N\NC(N)=O         TGI   > 10 µM
3  OC1[C@@H]2[C@@H](O)CCCN2C[C@@H](O)[C@H]1O (stereo partly specified)         TGI  > 100 µM
4  O=c1[nH]c2nc3ccccc3c(=O)n2/c1=C/c1ccc(Cl)cc1         TGI  > 100 µM
5  Nc1ncn([C@@H]2S[C@H](CO)[C@@H](O)[C@@H]2F)c(=O)n1         TGI  > 100 µM

----------
Test system: SK-MEL-5 melanoma
RUN DESCRIPTION: NCI tumour cell line growth inhibition, 48 h
VALUE KIND: TGI

In [3]: df
Out[3]:
                                    compound   measured
 0  Clc1ccc(-c2cn3ccnc3c(-c3ccc(Cl)cc3)n2)cc1    43.5 µM
 1        O=C1C[C@H]2CCCN2[C@@H](c2ccccc2)C1   > 100 µM
 2  Cn1c(=O)c(N=Nc2c(=O)n(C)c(=O)n3c2[nH]c2ccccc23)c2[nH]c3ccccc3n2c1=O   > 100 µM
 3  Cn1nc2ccc([N+](=O)[O-])c(Cn3nnc4ccccc43)c2n1   > 100 µM
 4  CCN1C(=O)N(CC)C2C1NN=c1s/c(=C\c3ccc(Cl)cc3Cl)c(=O)n12 (stereo not given)  0.0763 µM
 5           C[N+](C)(C)CCC(=O)CC[N+](C)(C)C   > 100 µM
 6  OC1[C@@H]2[C@@H](O)CCCN2C[C@@H](O)[C@H]1O (stereo not given in full)   > 100 µM
 7         CC(C)/C(Cl)=N/OC(=O)Nc1ccc(Br)cc1    26.3 µM
 8  COC(=O)C1=C(O)C(C(=O)OC)C2CC(=O)CC1C2(C)C (stereo not given)   > 100 µM
 9  CCc1c(C#N)c(=O)[nH]c(=O)n1CCN1CCN(C(=O)NCCCCCCNC(=O)N2CCN(CCn3c(CC)c(C#N)c(=O)[nH]c3=O)CC2)CC1   > 100 µM
10  C[C@@H](NC(C#N)c1ccco1)c1ccccc1 (stereo not given in full)   > 100 µM
11  Fc1ccc(C(OCCN2CCN(CCCc3ccccc3)CC2)c2ccc(F)cc2)cc1    10.1 µM
12      CCN(CCCOc1ccccc1)CCN(CC)CCCOc1ccccc1    5.44 µM
13  Cc1c(OC(C)C(=O)O)ccc2c(-c3ccccc3)cc(=O)oc12 (stereo not given)   > 100 µM
14  Nc1ncn([C@@H]2S[C@H](CO)[C@@H](O)[C@@H]2F)c(=O)n1   > 100 µM

----------
Test system: U251 CNS
RUN DESCRIPTION: NCI tumour cell line growth inhibition, 48 h; in the data active = GI50 below about 0.43 µM; inactive = the rest
Classes used: active, inactive

>>> df
                                   compound  assigned_class
0  CCOc1ccccc1CCN=C1NC(=O)/C(=C/c2ccc3ncccc3c2)S1        inactive
1           COc1cc(C)ccc1C(=O)c1ccc(C)cc1OC        inactive
2  C=C1CCC2C3(C)COC(C)(C)OC3CCC2(C)C1C/C=C1/C(=O)OCC1OC(C)=O (centres undefined)        inactive
3  C/C(=N/O)c1cccc(Nc2cc(-n3nnc4ccccc43)nc3ccccc23)c1        inactive
4  O=S(=O)(/N=c1\scc(-c2ccccc2)n1-c1ccccc1)c1ccc(N2N=C3c4ccccc4CC3C2c2ccc(Cl)cc2)cc1 (centres undefined)        inactive
5  O=C(NCC1CC1)c1ccc(-c2cccc(C(=O)NC3CC3)c2)cc1        inactive
6  CC1=C([Se]CC(OC(=O)CC[Se]c2ccccc2)C(=O)NC(C)(C)C)C(=O)c2ccccc2C1=O (centres undefined)        inactive
7  CCN1C(=O)N(CC)C2C1NN=c1s/c(=C\c3ccc(Cl)cc3Cl)c(=O)n12 (centres undefined)          active
8  COc1cc(/C=C/C(=O)/C=C/c2cc(OC)c3c(c2)OCO3)cc2c1OCO2        inactive

----------
System: SN12C renal
RUN DESCRIPTION: NCI tumour cell line growth inhibition, 48 h
VALUE KIND: TGI

                                    compound  assay_target  measured
 0  COc1ccc([C@H]2[C@H]3COC(=O)[C@H]3C(C#N)=C3Sc4ccccc4N32)cc1   SN12C renal   36.4 µM
 1               CCn1nc(C)c2c1C(=O)NCC(=O)N2   SN12C renal  > 100 µM
 2  CC(=O)Nc1ccc(-c2cc(C(=O)O)c3cc4ccccc4cc3n2)cc1   SN12C renal  > 100 µM
 3  COc1cc(C2c3c(ccc4ccccc34)C(=O)C3CCC(=O)N32)cc(OC)c1OC (configuration not stated)   SN12C renal   > 50 µM
 4  CC(CO)Nc1cc(-c2[nH]c3cccnc3c2-c2ccc(F)cc2)ccn1 (configuration not stated)   SN12C renal   > 25 µM
 5  O=C(O)CC(Cc1ccccc1Cl)C(=O)O (configuration not stated)   SN12C renal  > 100 µM
 6      CCN(CCCOc1ccccc1)CCN(CC)CCCOc1ccccc1   SN12C renal   44.8 µM
 7  COc1cc(/C=C/C(=O)/C=C/c2cc(OC)c3c(c2)OCO3)cc2c1OCO2   SN12C renal  > 100 µM
 8  Cc1ccc2nc(SCC(=O)N=Nc3c(O)[nH]c4ccccc34)n(-c3ccccc3)c(=O)c2c1   SN12C renal   29.1 µM
 9  C=C(c1ccccc1)C1(O)CCCCC1N (configuration not stated)   SN12C renal  > 100 µM
10  CCOC(=O)C(C#N)(Cc1c[nH]c2ccccc12)NC(C)=O (configuration not stated)   SN12C renal  > 100 µM
11  N#C[Se]Cc1cc(-c2ccccc2)n(-c2ccc(S(N)(=O)=O)cc2)n1   SN12C renal    4.1 µM
12  Nc1n(CC(=O)c2ccccc2)nc2sc(-c3ccccc3)n[n+]12   SN12C renal  > 100 µM
13  COc1cc2c(c(O)c1O)C(=O)C1CCC(=O)N1C2c1cccc2ccccc12 (configuration not stated)   SN12C renal   > 50 µM
14                  COc1cc(Cl)cc(=O)c(O)c1OC   SN12C renal  > 100 µM
15                O=C(Nc1cccc(Cl)c1)Nn1cnnc1   SN12C renal  > 100 µM
16  C/C=C/C(C#N)O[Si](C)(C)C (configuration not stated)   SN12C renal  > 100 µM

----------
Tested on: HS 578T breast
RUN DESCRIPTION: NCI tumour cell line growth inhibition, 48 h
VALUE KIND: TGI

>>> df
                                   compound  value_kind   measured
0  CC(=O)c1c(-c2cccc3ccccc23)c(C#N)c(=S)n(C2OC(CO)C(O)C(O)C2O)c1C (stereo not given)         TGI   > 100 µM
1  CCc1c2c(nc3ccc(OCc4ccc(B(O)O)cc4)cc13)-c1cc3c(c(=O)n1C2)COC(=O)[C@]3(O)CC         TGI   > 100 µM
2  C=CCOC(=O)N1c2ccc(O[Si](C)(C)C(C)(C)C)cc2[C@@]23O[C@@]24[C@@H]1C#C/C=C\C#C[C@]3(O)C(OC)(OC)C[C@@H]4C         TGI  > 89.1 µM
3  O=S(=O)(Nc1ccc(Br)cc1)c1ccc(-c2cnc(C3CC3)o2)cc1         TGI    6.17 µM
4          Oc1cc(Cc2ccccc2)c(Cc2ccccc2)cc1O         TGI    > 10 µM
